This section presents compounds with their documented herbicidal effect rating, SAGPY values.
tested on: SAGPY (Arrowhead (Pygmaea)); test: Preemergence weed control under flooded paddy conditions; type: in vivo, Sagittaria pygmaea; conditions: 0.0625 kg/ha, rated 3-4 weeks after treatment
Answer as a number with no unit attached.

> print(dat)
                                   compound  meas.value
1  CCOC(=O)CN1C(=O)C(SC)SC1=Nc1cc(-n2c(=O)cc(C(F)(F)F)n(C)c2=O)c(F)cc1Cl (centres unmarked) [Compound 125]         4.0

Consider the additional compound presented here.
Query: Entry Cn1c(C(F)(F)F)cc(=O)n(-c2cc(N=C3SCC(=O)N3Cc3ccc(Br)cc3)c(Cl)cc2F)c1=O [Compound 148] has what herbicidal effect rating, SAGPY?
Reply: 3.0

====

test system: CYPIR (Rice Flatsedge); assay: Preemergence weed control under flooded paddy conditions; type: in vivo, Cyperus iria; details: 0.0625 kg/ha, rated 3-4 weeks after treatment
endpoint_name: herbicidal effect rating, CYPIR

Examples with their reported herbicidal effect rating, CYPIR follow.
> print(dat)
                                   compound                  target                    endpoint.name  meas.value
1  COCCN1C(=O)CSC1=Nc1cc(-n2c(=O)cc(C(F)(F)F)n(C)c2=O)c(F)cc1Cl [Compound 155]  CYPIR (Rice Flatsedge)  herbicidal effect rating, CYPIR         0.0
2  Cn1c(C(F)(F)F)cc(=O)n(-c2cc(N=C3SCC(=O)N3Cc3ccco3)c(Cl)cc2F)c1=O [Compound 122]  CYPIR (Rice Flatsedge)  herbicidal effect rating, CYPIR         7.0
3  COc1cccc(CN2C(=O)CSC2=Nc2cc(-n3c(=O)cc(C(F)(F)F)n(C)c3=O)c(F)cc2Cl)c1 [Compound 137]  CYPIR (Rice Flatsedge)  herbicidal effect rating, CYPIR         2.0
4  CCOC(=O)CN1C(=O)CSC1=Nc1cc(N2C(=O)CC(C(F)(F)F)CC2=O)c(F)cc1Cl [Compound 169]  CYPIR (Rice Flatsedge)  herbicidal effect rating, CYPIR         0.0
5  Cc1ccc(CN2C(=O)CSC2=Nc2cc(-n3c(=O)cc(C(F)(F)F)n(C)c3=O)c(F)cc2Cl)cc1C [Compound 147]  CYPIR (Rice Flatsedge)  herbicidal effect rating, CYPIR         4.0

Query: Entry Cc1cccc(CN2C(=O)CSC2=Nc2cc(-n3c(=O)cc(C(F)(F)F)n(C)c3=O)c(F)cc2Cl)c1 [Compound 130] has what herbicidal effect rating, CYPIR?
Reply: 2.0

====

system: AMBEL (Ragweed, Common); assay: Preemergence herbicidal evaluation; assay type: in vivo, Ambrosia artemisifolia; conditions: rate 0.2500 kg/ha; rated 4-5 weeks after treatment
endpoint_name: Preemergence herbicidal rating AMBEL
Answer as a number with no unit attached.

Examples with their reported Preemergence herbicidal rating AMBEL follow.
> print(dat)
                                   compound                         endpoint.name  meas.value
1  Cn1c(C(F)(F)F)cc(=O)n(-c2cc(N=C3SCC(=O)N3[C@H](Cc3ccccc3)C(=O)O)c(Cl)cc2F)c1=O  Preemergence herbicidal rating AMBEL         7.0
2  Cn1c(C(F)(F)F)cc(=O)n(-c2cc(N=C3SCC(=O)N3Cc3ccco3)c(Cl)cc2F)c1=O  Preemergence herbicidal rating AMBEL         2.0
3  Cn1c(C(F)(F)F)cc(=O)n(-c2cc(N=C3SCC(=O)N3[C@@H](Cc3ccccc3)C(=O)O)c(Cl)cc2F)c1=O  Preemergence herbicidal rating AMBEL         9.0
4  CCOC(=O)CN1C(=O)C(Cc2ccccc2OC(C)C(=O)OC)SC1=Nc1cc(-n2c(=O)cc(C(F)(F)F)n(C)c2=O)c(F)cc1Cl (stereo not drawn)  Preemergence herbicidal rating AMBEL         0.0
5  Cn1c(C(F)(F)F)cc(=O)n(-c2cc(N=C3SCC(=O)N3CC(=O)OCC#N)c(Cl)cc2F)c1=O  Preemergence herbicidal rating AMBEL         9.0

Query: Entry Cn1c(C(F)(F)F)cc(=O)n(-c2cc(N=C3SCC(=O)N3CCC(=O)O)c(Cl)cc2F)c1=O has what Preemergence herbicidal rating AMBEL?
Reply: 6.0

Query: Moving on to the next compound: COC(=O)[C@H](Cc1ccc([N+](=O)[O-])cc1)N1C(=O)CSC1=Nc1cc(-n2c(=O)cc(C(F)(F)F)n(C)c2=O)c(F)cc1Cl
Reply: 1.0

Query: Moving on to the next compound: CCOC(=O)CN1C(=O)C(C(=O)OCC)SC1=Nc1cc(-n2c(=O)cc(C(F)(F)F)n(C)c2=O)c(F)cc1Cl (stereo not drawn)
Reply: 5.0

Query: Moving on to the next compound: C=CCN1C(=O)CSC1=Nc1cc(-n2c(=O)cc(C(F)(F)F)n(C)c2=O)c(F)cc1Cl
Reply: 7.0

Query: Moving on to the next compound: CCOC(=O)CN1C(=O)C(CC(=O)O)SC1=Nc1cc(-n2nc(C)n(C(F)F)c2=O)c(F)cc1Cl (stereo not drawn)
Reply: 0.0

Query: Moving on to the next compound: COCCOC(=O)CN1C(=O)CSC1=Nc1cc(-n2c(=O)cc(C(F)(F)F)n(C)c2=O)c(F)cc1Cl
Reply: 2.0

Query: Moving on to the next compound: C=CCN1C(=O)C(CC(=O)OC(C)C)SC1=Nc1cc(-n2c(=O)cc(C(F)(F)F)n(C)c2=O)c(F)cc1Cl (stereo not drawn)
Reply: 9.0

====

system: ABUTH (Velvetleaf); test: Postemergence herbicidal evaluation; assay type: in vivo, Abutilon theophrasti; conditions: postemergence, rate 0.0313 kg/ha
endpoint_name: herbicidal rating ABUTH
Answer as a number with no unit attached.

Examples with their reported herbicidal rating ABUTH follow.
compound	herbicidal rating ABUTH
CCOC(=O)CN1C(=O)C(CC(=O)NS(=O)(=O)c2ccccc2)SC1=Nc1cc(-n2c(=O)cc(C(F)(F)F)n(C)c2=O)c(F)cc1Cl (stereo not drawn) [Compound 100]	9.0
Cn1c(C(F)(F)F)cc(=O)n(-c2cc(N=C3SCC(=O)N3Cc3ccc(Br)cc3)c(Cl)cc2F)c1=O [Compound 148]	9.0
CCOC(=O)CN1C(=O)C(CC(=O)NS(=O)(=O)CC)SC1=Nc1cc(-n2c(=O)cc(C(F)(F)F)n(C)c2=O)c(F)cc1Cl (stereo not drawn) [Compound 103]	9.0
Cn1c(C(F)(F)F)cc(=O)n(-c2cc(N=C3SCC(=O)N3C3CC3)c(Cl)cc2F)c1=O [Compound 152]	4.0
COCCN1C(=O)CSC1=Nc1cc(-n2c(=O)cc(C(F)(F)F)n(C)c2=O)c(F)cc1Cl [Compound 155]	9.0
Cn1c(C(F)(F)F)cc(=O)n(-c2cc(N=C3SCC(=O)N3CC(F)(F)F)c(Cl)cc2F)c1=O [Compound 163]	9.0
COc1ccc(CN2C(=O)CSC2=Nc2cc(-n3c(=O)cc(C(F)(F)F)n(C)c3=O)c(F)cc2Cl)cc1OC [Compound 134]	7.0
C=CCN1C(=O)C(CC(N)=O)SC1=Nc1cc(-n2c(=O)cc(C(F)(F)F)n(C)c2=O)c(F)cc1Cl (stereo not drawn) [Compound 99]	9.0

Consider the additional compound presented here.
Query: Entry CCOC(=O)CN1C(=O)C(SC)SC1=Nc1cc(-n2c(=O)cc(C(F)(F)F)n(C)c2=O)c(F)cc1Cl (stereo not drawn) [Compound 125] has what herbicidal rating ABUTH?
Reply: 9.0

====

system: GALAP (Galium); test: Postemergence herbicidal evaluation; assay type: in vivo, Galium aparine; details: postemergence, rate 0.0625 kg/ha
Mark Not fulfilled for herbicidal rating GALAP values under 3, and Fulfilled for everything at or above.

Before answering, review these 6 worked examples.
> print(dat)
                                   compound          target  qualitative.label
1  C#CC(C)N1C(=O)CSC1=Nc1cc(-n2c(=O)cc(C(F)(F)F)n(C)c2=O)c(F)cc1Cl (stereo not drawn)  GALAP (Galium)          Fulfilled
2  C=CCN1C(=O)C(CC(=O)NO)SC1=Nc1cc(-n2c(=O)cc(C(F)(F)F)n(C)c2=O)c(F)cc1Cl (stereo not drawn)  GALAP (Galium)      Not fulfilled
3  CCOC(=O)CN1C(=O)C(C(=O)OCC)SC1=Nc1cc(-n2c(=O)cc(C(F)(F)F)n(C)c2=O)c(F)cc1Cl (stereo not drawn)  GALAP (Galium)      Not fulfilled
4  Cn1c(C(F)(F)F)cc(=O)n(-c2cc(N=C3SCC(=O)N3CC(=O)OCC3CC3)c(Cl)cc2F)c1=O  GALAP (Galium)          Fulfilled
5  Cn1c(C(F)(F)F)cc(=O)n(-c2cc(N=C3SCC(=O)N3Cc3cccc(C(F)(F)F)c3)c(Cl)cc2F)c1=O  GALAP (Galium)      Not fulfilled
6  CN1C(=O)C(CC(=O)NO)SC1=Nc1cc(-n2c(=O)cc(C(F)(F)F)n(C)c2=O)c(F)cc1Cl (stereo not drawn)  GALAP (Galium)          Fulfilled

Kindly consider the entry below.
Query: Does herbicidal rating GALAP meet or surpass 3 for CCOC(=O)CN1C(=O)C(Cl)SC1=Nc1cc(-n2c(=O)cc(C(F)(F)F)n(C)c2=O)c(F)cc1Cl (stereo not drawn) ?
Reply: Not fulfilled
